# reported Fold enrichment over TTM-001; entries follow
Tested on: brain
Assay: Maturation of TTM-001 capsid, NGS enrichment in brain of CD-1 Outbred mice
Format: in vivo
Conditions: NGS fold-enrichment of TTM-001 matured AAV capsid variants in the brain of CD-1 Outbred mice; intravenous 1.0×10^12 VG/dose; 14 days in life; RNA; relative to non-matured TTM-001 control
Output spec: scalar in fold, unitless text.

Report measured Fold enrichment over TTM-001; entry is `KTINGSGSPHSKLRNQQT`
3.112

* * *

# reported Fold enrichment over TTM-001; entries follow
Tested on: brain
Test: Maturation of TTM-001 capsid, NGS enrichment in brain of CD-1 Outbred mice
Type: in vivo
Conditions: NGS fold-enrichment of TTM-001 matured AAV capsid variants in the brain of CD-1 Outbred mice; intravenous 1.0×10^12 VG/dose; 14 days in life; RNA; relative to non-matured TTM-001 control
Output spec: scalar in fold, unitless text.

KTINGSGSPHAFLQNQQT; 2.475

Report measured Fold enrichment over TTM-001; entry is `KTINGSGSPHSTRLNQQT`
2.860

Report measured Fold enrichment over TTM-001; entry is `KTINGSGSPHSKAFTRQT`
2.518

* * *

Test system: brain
Assay: NGS fold enrichment of synthetic library (passage 3) in BALB/c mice, first cross-species screen
Type: in vivo
Conditions: synthetic library passage 3, intravenous, RNA NGS, brain of BALB/c mice, relative to wild-type AAV9
Experimental: After creation of the synthetic library with the sub-selected variants, the synthetic library was screened (passage 3) in two NHPs (2-4 years of age) and two strains of mice, BALB/c (n=3, 6-8 weeks of age) and C57Bl/6 mice (n=3, 6-8 weeks of age), in a first cross-species evolution screen. The animals were injected intravenously with the synthetic library. […]
Test Readout: Fold enrichment over AAV9 in the brain of Mice (BALB/c)

Below are worked cases with known answers.
GSGQNAGSFPNQQT; 0.286 fold
GNGFSSASGQNQQT; 0.182 fold
GSRNGHTVGRNQQT; 0.367 fold
GSGHLPQSAQNQQT; 0.496 fold
GSEYGHKSGQNQQT; 5.332 fold
GSSGHRESGQNQQT; 0.691 fold
GSRDGHTVGQNQQT; 0.661 fold
GSGVSTYNIQNQQT; 0.520 fold

The record that follows has no Fold enrichment over AAV9 in the brain of Mice (BALB/c) shown yet.
Report measured Fold enrichment over AAV9 in the brain of Mice (BALB/c); entry is `GSGQNQQVLTTART`
0.948 fold

* * *

Tested on: brains, heart, liver, muscle, and DRG of the NHPs
Experiment: Maturation of TTM-001 and TTM-002 capsids, NGS enrichment in NHP tissues
Format: in vivo
Details: NHP muscle; relative to AAV9 control
# reported Fold Enrichment relative to AAV9, Muscle (NHP); entries follow
Returns: string containing the number followed by the unit.

Below are worked cases with known answers.
KTVNGSGSPHSKAPNQQT; 0.006 fold
KTERGSGSPHSKAQNQQT; 0.000 fold
KGGEGSGSPHSKAQNQQT; 0.000 fold
KTVNGGGSPHSKAQHQQT; 0.000 fold
KTINGSGSPHSKNRDQQT; 0.000 fold

Report measured Fold Enrichment relative to AAV9, Muscle (NHP); entry is `KTDRNSGSPHSKAQNQQT`
0.000 fold
